The reported numbers originate from patent US20220073643A1.

# reported pEC50; entries follow
Target: T1, human Claudin18.2 (human)
T1 construct: also called CLDN18.2
Assay: cell ELISA, Claudin18.2-expressing HEK293T cells
Bear in mind: pEC50 is minus log10 of a mol/L concentration; give just that figure.

binder: 181C7B2 (antibody, V domains shown, mouse hybridoma mAb) VH: QVQLKQSGPGLVQPSQSLSITCTVSGFSLTYYGVHWVRQSPGKGLEWLGVIWRGGNTDYNAAFISRLSINKDNSKSQVFFKMNSLQPNDTAIYYCARAAYYGNCFDYWGQGTTLTVSS VL: DIVMTQSPSSLTVTAGEKVTMSCKSSQSLLNSGNQKNYLTWYQQKPGQPPKLLIYWASTRESGVPDRFTGSGSGTDFTLTISSVQAEDLAVYYCQNNYIYPLTFGAGTKLELK
recorded_number: 8.97

// below: pEC50 requested for another binder
Give the value of pEC50 reported for the following: 430B3F1 (antibody, V domains shown, mouse hybridoma mAb) VH: DVQLVESGGGLVQPGGSRKLSCAASGFTFSGFGMHWIRQTPEKGLEWVAYISSGGRPIYYADTVQGRFTISRDNPKNTLFLQMTSLRSEDTAMYFCARFYYGNSFDHWGQGTLVTISS VL: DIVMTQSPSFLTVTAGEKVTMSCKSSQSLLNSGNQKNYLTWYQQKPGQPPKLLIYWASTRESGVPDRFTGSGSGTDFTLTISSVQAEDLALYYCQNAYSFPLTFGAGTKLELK
8.59
